Each record here notes measured Relative cAMP EC50.
- MEASURED TARGET: hGLP-1R (Homo sapiens, UniProt P43220)
- Sequence (P43220 24-463): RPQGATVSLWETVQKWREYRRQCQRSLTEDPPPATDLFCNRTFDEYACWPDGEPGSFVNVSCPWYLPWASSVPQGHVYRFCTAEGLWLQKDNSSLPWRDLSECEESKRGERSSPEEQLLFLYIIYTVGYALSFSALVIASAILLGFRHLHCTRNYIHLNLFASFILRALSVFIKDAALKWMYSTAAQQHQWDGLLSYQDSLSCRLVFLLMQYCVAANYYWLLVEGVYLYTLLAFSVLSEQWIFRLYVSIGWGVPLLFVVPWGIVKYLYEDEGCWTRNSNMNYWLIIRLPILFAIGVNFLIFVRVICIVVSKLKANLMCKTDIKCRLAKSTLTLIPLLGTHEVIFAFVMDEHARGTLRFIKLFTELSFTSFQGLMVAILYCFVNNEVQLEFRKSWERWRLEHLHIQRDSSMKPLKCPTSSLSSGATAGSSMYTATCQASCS
- PROTOCOL TEXT: cell-based or functional assay
I only need the number, in nM, no unit after it.

{"BINDER": "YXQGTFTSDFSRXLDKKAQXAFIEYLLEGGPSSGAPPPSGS (synthetic construct; SITE 2: note = 2-Aminoisobutyric Acid; SITE 13: note = alpha-methyl-leucine; SITE 17: note = Lysine is chemically modified through conjugation of the epsilon-amino group of the Lysine side chain with (2-[2-(2-Amino-ethoxy)-ethoxy]-acetyl)-(gamma-Glu)-CO-(CH2) 16-CO2H; SITE 20: n) [Example 143]", "Relative cAMP EC50 [nM]": 2.44}
{"BINDER": "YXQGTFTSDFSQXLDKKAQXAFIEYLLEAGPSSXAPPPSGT (synthetic construct; SITE 2: note = 2-Aminoisobutyric Acid; SITE 13: note = alpha-methyl-leucine; SITE 17: note = Lysine is chemically modified through conjugation of the epsilon-amino group of the Lysine side chain with (2-[2-(2-Amino-ethoxy)-ethoxy]-acetyl)-(gamma-Glu)-CO-(CH2) 16-CO2H; SITE 20: n) [Example 779]", "Relative cAMP EC50 [nM]": 0.949}

Next:
Identify measured Relative cAMP EC50 corresponding to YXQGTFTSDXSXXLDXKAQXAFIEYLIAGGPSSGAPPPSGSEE (C-terminal amide; lysine acylated with (Glu)2-γ-Glu-C18 diacid; synthetic construct; SITE 2: note = 2-Aminoisobutyric Acid; SITE 10: note = 3-(4-Pyridyl)-L-alanine; SITE 12: note = L-ornithine; SITE 13: note = alpha-methyl-leucine; SITE 16: note = L-ornithine; SITE 17: note = Lysine is chemically modified through conjugation of the epsilon-amino group of the Lys) [Example 1062]
7.75

Values from patent US20240270821A1
